Every entry's value here was drawn from patent US5618726A.

Parameter: Degradation (%) after Streptomyces cultivation, strain A11. Scope: all listed entries.
# Test system: S. chromofuscus A11
# recorded.conditions: streptomyces chromofuscus a11 culture, 336 h
# unit: % | format: bare number

Sample answers from the record:
COc1cc(N=Nc2ccc(S(=O)(=O)O)cc2)ccc1O = 73
Cc1cc(N=Nc2ccc(S(=O)(=O)O)cc2)cc(C)c1O = 73
COc1cc(N=Nc2ccc(S(=O)(=O)O)cc2)cc(OC)c1O = 83
CCC(C)c1cc(N=Nc2ccc(S(=O)(=O)O)cc2)ccc1O (centres unmarked) = 16
COc1cc(C)cc(N=Nc2ccc(S(=O)(=O)O)cc2)c1O = 9

The reported value for Cc1cc(N=Nc2ccc(S(=O)(=O)O)cc2)ccc1O in terms of Degradation (%) after Streptomyces cultivation, strain A11 is 20

The reported value for CCN(CC)c1ccc(N=Nc2ccc(S(=O)(=O)O)cc2)cc1 in terms of Degradation (%) after Streptomyces cultivation, strain A11 is 3

The reported value for O=S(=O)(O)c1ccc(N=Nc2ccc(O)c(Cl)c2)cc1 in terms of Degradation (%) after Streptomyces cultivation, strain A11 is 5

====

# System: Phanerochaete chrysosporium
# assay.name: Substrate removal / decolorization by P. chrysosporium culture
# Type: cell-based
# recorded.conditions: initial concn 150 ppm, 14 days
recorded.endpoint: % Decolorization, P. chrysosporium (%)
# unit: % | format: bare number

Sample answers from the record:
CN(C)c1ccc(N=Nc2ccc(S(=O)(=O)O)cc2)cc1 [compound 14] = 93
Cc1ccc(O)c(N=Nc2ccc(S(=O)(=O)O)cc2)c1 [compound 8] = 27
CCC(C)c1cc(N=Nc2ccc(S(=O)(=O)O)cc2)ccc1O (stereo not drawn) [compound 10] = 90
O=S(=O)(O)c1ccc(N=Nc2ccc(O)c(Cl)c2)cc1 [compound 13] = 92
CCN(CC)c1ccc(N=Nc2ccc(S(=O)(=O)O)cc2)cc1 [compound 15] = 38
CCc1ccc(O)c(N=Nc2ccc(S(=O)(=O)O)cc2)c1 [compound 9] = 89

The reported value for Cc1cc(N=Nc2ccc(S(=O)(=O)O)cc2)ccc1O [compound 5] in terms of % Decolorization, P. chrysosporium is 90

The reported value for COc1cc(N=Nc2ccc(S(=O)(=O)O)cc2)cc(OC)c1O [compound 4] in terms of % Decolorization, P. chrysosporium is 93

The reported value for O=S(=O)(O)c1ccc(N=Nc2cc(F)c(O)c(F)c2)cc1 [compound 12] in terms of % Decolorization, P. chrysosporium is 86

====

Parameter: Degradation (%) after Streptomyces cultivation, strain A10. Scope: all listed entries.
# Tested on: S. rochei A10
# Format: cell-based
# recorded.conditions: streptomyces rochei a10 culture, 336 h
# From the text: Microbiol., 1984, 130:2905-2913. Replicate sterile controls also were run in each experiment.
# unit: % | format: bare number

The reported value for CCC(C)c1cc(N=Nc2ccc(S(=O)(=O)O)cc2)ccc1O (centres unmarked) in terms of Degradation (%) after Streptomyces cultivation, strain A10 is 11

The reported value for O=S(=O)(O)c1ccc(N=Nc2ccc(O)c(Cl)c2)cc1 in terms of Degradation (%) after Streptomyces cultivation, strain A10 is 2

The reported value for Cc1cc(N=Nc2ccc(S(=O)(=O)O)cc2)ccc1O in terms of Degradation (%) after Streptomyces cultivation, strain A10 is 9

The reported value for COc1cc(C)cc(N=Nc2ccc(S(=O)(=O)O)cc2)c1O in terms of Degradation (%) after Streptomyces cultivation, strain A10 is 4

The reported value for COc1cc(N=Nc2ccc(S(=O)(=O)O)cc2)cc(OC)c1O in terms of Degradation (%) after Streptomyces cultivation, strain A10 is 79

The reported value for CCN(CC)c1ccc(N=Nc2ccc(S(=O)(=O)O)cc2)cc1 in terms of Degradation (%) after Streptomyces cultivation, strain A10 is 2

The reported value for COc1cc(N=Nc2ccc(S(=O)(=O)O)cc2)ccc1O in terms of Degradation (%) after Streptomyces cultivation, strain A10 is 77

The reported value for Cc1cc(N=Nc2ccc(S(=O)(=O)O)cc2)cc(C)c1O in terms of Degradation (%) after Streptomyces cultivation, strain A10 is 68

====

# system.name: horseradish peroxidase type II (Armoracia rusticana)
# Sequence (P00433 31-338): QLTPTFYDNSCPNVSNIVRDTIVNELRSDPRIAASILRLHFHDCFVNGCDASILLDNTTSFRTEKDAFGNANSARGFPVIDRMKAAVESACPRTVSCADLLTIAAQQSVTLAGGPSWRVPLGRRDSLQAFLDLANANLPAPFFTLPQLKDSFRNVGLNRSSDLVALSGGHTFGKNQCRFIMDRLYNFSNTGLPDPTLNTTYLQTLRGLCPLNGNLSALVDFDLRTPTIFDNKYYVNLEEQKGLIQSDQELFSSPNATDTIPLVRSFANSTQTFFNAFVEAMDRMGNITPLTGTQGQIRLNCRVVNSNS
# assay.name: Oxidation of azo dyes by horseradish peroxidase preparation
# Assay type: biochemical
# recorded.conditions: pH 8, 37° C., H2O2
So basically every entry gets a class from its Oxidation rate of azo dyes, Horseradish peroxidase, ranges being class 1: < 0.1 μmoles per minute per ml; class 2: ≥ 0.1 μmoles per minute per ml and < 0.4 μmoles per minute per ml; class 3: ≥ 0.4 μmoles per minute per ml

COc1ccc(N=Nc2ccc(S(=O)(=O)O)cc2)cc1OC [compound 17] = class 2
Cc1ccc(O)c(N=Nc2ccc(S(=O)(=O)O)cc2)c1 [compound 8] = class 1
COc1cc(N=Nc2ccc(N=Nc3ccc(S(=O)(=O)O)cc3)cc2S(=O)(=O)O)ccc1O [compound 1] = class 3

Ask: Textbook exercise: identify the category of the compound given here, Cc1cc(N=Nc2ccc(S(=O)(=O)O)cc2)cc(C)c1O [compound 3] , according to its measured value.
Reply: class 3

Ask: Textbook exercise: identify the category of the compound given here, COc1cc(C)cc(N=Nc2ccc(S(=O)(=O)O)cc2)c1O [compound 11] , according to its measured value.
Reply: class 2

Ask: Textbook exercise: identify the category of the compound given here, CCC(C)c1cc(N=Nc2ccc(S(=O)(=O)O)cc2)ccc1O (centres unmarked) [compound 10] , according to its measured value.
Reply: class 2

Ask: Textbook exercise: identify the category of the compound given here, CCN(CC)c1ccc(N=Nc2ccc(S(=O)(=O)O)cc2)cc1 [compound 15] , according to its measured value.
Reply: class 2

Ask: Textbook exercise: identify the category of the compound given here, Cc1cc(O)c(N=Nc2ccc(S(=O)(=O)O)cc2)cc1C [compound 7] , according to its measured value.
Reply: class 2

====

# System: Mn(II)-peroxidase
# assay.name: Oxidation of dyes by P. chrysosporium Mn(II)-peroxidase
# Assay type: biochemical, Phanerochaete chrysosporium
# recorded.conditions: crude enzyme, conditions specific for Mn(II)-peroxidase
// false (0) strictly below 0.2 μmoles per minute per ml in Oxidation rate of azo dyes, P. chrysosporium Mn-peroxidase; true (1) otherwise

O=S(=O)(O)c1ccc2c(N=Nc3ccccc3)c(O)ccc2c1 = false (0)
Cc1cc(N=Nc2ccc(S(=O)(=O)O)cc2)ccc1O = true (1)
CN(C)c1ccc(N=Nc2ccc(S(=O)(=O)O)cc2)cc1 = false (0)
O=S(=O)(O)c1ccc(N=Nc2ccc(O)cc2)cc1 = false (0)
COc1cc(N=Nc2ccc(S(=O)(=O)O)cc2)ccc1O = true (1)
O=S(=O)(O)c1ccc(N=Nc2c(O)ccc3ccccc23)cc1 = true (1)
CCC(C)c1cc(N=Nc2ccc(S(=O)(=O)O)cc2)ccc1O (stereo not shown) = true (1)
Cc1ccc(O)c(N=Nc2ccc(S(=O)(=O)O)cc2)c1 = true (1)

Ask: Does COc1ccc(N=Nc2ccc(S(=O)(=O)O)cc2)cc1OC have a reported Oxidation rate of azo dyes, P. chrysosporium Mn-peroxidase of at least 0.2 μmoles per minute per ml?
Reply: true (1)

Ask: Does Cc1cc(N=Nc2ccc(S(=O)(=O)O)cc2)cc(C)c1O have a reported Oxidation rate of azo dyes, P. chrysosporium Mn-peroxidase of at least 0.2 μmoles per minute per ml?
Reply: true (1)

====

# System: S. chromofuscus A11 extracellular peroxidase
# assay.name: Oxidation of azo dyes by S. chromofuscus A11 crude enzyme preparation
# Assay type: biochemical, Streptomyces chromofuscus A11
# recorded.conditions: pH 8, 37° C., H2O2
Parameter: Oxidation rate of azo dyes, S. chromofuscus peroxidase. Scope: all listed entries.
# unit: μmoles per minute per ml | format: bare number

The reported value for COc1cc(C)cc(N=Nc2ccc(S(=O)(=O)O)cc2)c1O in terms of Oxidation rate of azo dyes, S. chromofuscus peroxidase is 0.33

The reported value for COc1ccc(N=Nc2ccc(S(=O)(=O)O)cc2)cc1 in terms of Oxidation rate of azo dyes, S. chromofuscus peroxidase is 0.06

The reported value for O=S(=O)(O)c1ccc(N=Nc2ccc(O)cc2)cc1 in terms of Oxidation rate of azo dyes, S. chromofuscus peroxidase is 0.42

====

# Test system: ligninase
# assay.name: Oxidation of dyes by P. chrysosporium ligninase (crude preparation)
# Assay type: biochemical, Phanerochaete chrysosporium
# recorded.conditions: crude enzyme, conditions specific for ligninase
recorded.endpoint: Oxidation rate of azo dyes, P. chrysosporium Ligninase

Sample answers from the record:
CCc1ccc(O)c(N=Nc2ccc(S(=O)(=O)O)cc2)c1 = 1.27 μmoles per minute per ml
COc1cc(N=Nc2ccc(S(=O)(=O)O)cc2)cc(OC)c1O = 0.22 μmoles per minute per ml
O=S(=O)(O)c1ccc(N=Nc2ccc(O)c(Cl)c2)cc1 = 0.88 μmoles per minute per ml
CCC(C)c1cc(N=Nc2ccc(S(=O)(=O)O)cc2)ccc1O (centres unmarked) = 0.51 μmoles per minute per ml

The reported value for COc1ccc(N=Nc2ccc(S(=O)(=O)O)cc2)cc1OC in terms of Oxidation rate of azo dyes, P. chrysosporium Ligninase is 1.03 μmoles per minute per ml
